Every entry's value here was drawn from paper PMC10786891.

# target-of-assay: T1, EsCas13d, nuclease-dead (Eubacterium siraeum, UniProt B0MS50, R295A;H300A;R849A;H854A)
# T1 sequence: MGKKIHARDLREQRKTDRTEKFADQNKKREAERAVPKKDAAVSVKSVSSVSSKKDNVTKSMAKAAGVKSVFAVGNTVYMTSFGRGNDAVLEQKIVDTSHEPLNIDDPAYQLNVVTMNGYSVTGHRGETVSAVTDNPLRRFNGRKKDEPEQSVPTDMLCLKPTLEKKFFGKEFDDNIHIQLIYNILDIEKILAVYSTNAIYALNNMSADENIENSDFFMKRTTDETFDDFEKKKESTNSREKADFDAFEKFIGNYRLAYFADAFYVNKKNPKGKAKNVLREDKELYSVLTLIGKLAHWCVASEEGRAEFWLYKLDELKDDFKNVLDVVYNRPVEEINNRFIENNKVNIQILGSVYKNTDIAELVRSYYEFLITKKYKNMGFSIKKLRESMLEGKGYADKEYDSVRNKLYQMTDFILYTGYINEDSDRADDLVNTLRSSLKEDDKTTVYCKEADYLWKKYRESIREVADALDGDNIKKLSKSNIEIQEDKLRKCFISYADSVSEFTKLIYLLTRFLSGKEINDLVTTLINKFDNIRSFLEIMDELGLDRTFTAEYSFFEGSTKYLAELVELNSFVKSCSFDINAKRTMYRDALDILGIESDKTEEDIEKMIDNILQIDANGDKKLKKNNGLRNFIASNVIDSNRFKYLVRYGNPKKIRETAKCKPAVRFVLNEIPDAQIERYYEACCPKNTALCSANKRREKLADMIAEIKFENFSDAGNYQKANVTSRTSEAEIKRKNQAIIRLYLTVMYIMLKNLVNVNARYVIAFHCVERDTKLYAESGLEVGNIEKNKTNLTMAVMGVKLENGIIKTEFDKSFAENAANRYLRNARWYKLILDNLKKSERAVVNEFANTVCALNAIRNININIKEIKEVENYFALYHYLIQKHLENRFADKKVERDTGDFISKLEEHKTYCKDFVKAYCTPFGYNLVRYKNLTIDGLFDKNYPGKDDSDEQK
# assay-info: BLI; crRNA (strand 1, pre-loaded); Mg2+; 40 mM Tris-HCl pH 7.5, 150 mM NaCl, 6 mM MgCl2, 1 mM DTT, 0.1% Tween-20, 0.2 mg/ml BSA; temperature not stated
# condition-summary: tags: His6-TwinStrep-SUMO cleaved; label: 3' biotin on strand 2
In this section, each of the binders is paired with its reported koff.
Numbers only here, please. The scale is s⁻¹.

binder	koff / s⁻¹
target 1 C7A (60-mer) (mixed) RNA 1: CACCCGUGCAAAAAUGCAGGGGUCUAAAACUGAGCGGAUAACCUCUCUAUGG RNA 2: CCACAUCUACGAAUUCGUACCAUAGAGAGGUUAUACGCUCACCGAGAUCGGAAGAGCACA	0.00045

Next binder, koff to be filled in.
## Task Data request, read-out koff, for target 1 3'-UGG (60-mer) (mixed) RNA 1: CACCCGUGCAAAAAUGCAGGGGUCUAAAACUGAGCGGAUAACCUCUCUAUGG RNA 2: CCACAUCUACGAAUUCGUACCAUAGAGAGGUUAUCCGCUCAUGGAGAUCGGAAGAGCACA
## Result 0.0006
